Assay: binders of probe aFSTL3 on microarray, primary screen, stem cell growth factor project, biochemical, small-molecule microarray, fluorescence 635/667 (AID 1064);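 further: measures binding of the biotinylated anti-FSTL3 antibody to printed compounds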
Details: higher = more signal
Please use yes (1) whenever composite z-score is not below 0.2, and no (0) whenever it is.

Q: Is it the case that [N-]=[N+]=Nc1ccccc1C[C@@]1(C(=O)N2CCOCC2)N=C(c2ccc(OCCCO)cc2)O[C@@H]1c1ccccc1N=[N+]=[N-] has composite z-score reaching or exceeding 0.2?
Ans: yes (1)

Q: Please indicate if the recorded composite z-score for COc1cc(CO)cc(I)c1O[C@H]1C=C(C(=O)NCCO)C[C@@H](NCCc2c[nH]c3ccccc23)[C@@H]1O meets or exceeds 0.2.
Ans: yes (1)

Q: Threshold query (composite z-score >= 0.2) on C=C[C@H](OC)[C@@H](OC(=O)Nc1ccc(SC)cc1)c1ccc(O)c(F)c1
Ans: no (0)

Q: Is the recorded value of composite z-score equal to or greater than 0.2 for this compound? C=CC[C@@]12N=C(c3ccc(OCCCO)cc3)O[C@@H]1c1ccccc1CN(Cc1ccccc1)C2=O
Ans: yes (1)

Q: Answer whether composite z-score of CC(C)[C@H]1NC(=O)[C@@]23C(=O)N[C@@H](Cc4ccccc4)C2[C@H](C)[C@@]2(C)O[C@H]2C3/C=C/C/C=C\CNC(=O)[C@H](C)NC1=O (some centres not stated) is greater than or equal to 0.2.
Ans: no (0)

Q: Does the reported composite z-score for NC(=O)NCC#Cc1ccc2c(c1)[C@]1(C(=O)N2)[C@H](C(N)=O)[C@H]2C(=O)O[C@H](c3ccccc3)[C@H](c3ccccc3)N2[C@@H]1c1ccccc1OCCO fall at or above the 0.2 mark?
Ans: no (0)

Q: Please check the record Cc1cc(C)c(C(O)C2C=CC3C(=O)N(C)C(=O)C3N2N2CCCCC2)c(C)c1 (configuration not stated) and state if its composite z-score is at or above 0.2.
Ans: no (0)

Q: Form field: composite z-score at least 0.2? Entry: CC(=O)Nc1ccc([C@H]2[C@H](C)CC[C@H]3C(=O)N4[C@@H](CC[C@@H](C)[C@@H]4c4ccc(NC(C)=O)cc4)C(=O)N32)cc1
Ans: no (0)

Q: Reported composite z-score at or above 0.2? CC(C)CN1C(=O)[C@@]2(Cc3ccccc31)c1ccccc1C(=O)N(C1CCCCC1)[C@H]2c1ccc(CO)cc1
Ans: yes (1)

Q: Assess whether reported composite z-score for O=C(NCC(O)CO)[C@]1(Cc2ccccc2)N=C(c2ccc(OCCCO)cc2)O[C@@H]1c1ccccc1 (some centres not stated) sits at 0.2 or higher.
Ans: yes (1)

Q: Does composite z-score meet or surpass 0.2 for CCCNC(=O)[C@@]1(Sc2ccc(C)cc2)CC(=O)N(Cc2ccccc2Cl)[C@@H]1c1ccc(CO)cc1 ?
Ans: yes (1)

Q: Hi, just wondering whether CO[C@H]1O[C@H](CO)[C@@H](OC(=O)Nc2ccccc2)[C@H](OC(=O)Nc2ccc3c(c2)OCO3)[C@@H]1OC(=O)Nc1ccc2c(c1)OCO2 shows composite z-score of 0.2 or higher.
Ans: yes (1)

---

Experiment: Plasmodium falciparum growth inhibition, primary screen, strain 3D7, DAPI fluorescence, 100 nL (AID 1184);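 further: parasites grown inside human red blood cells in medium with human serum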
Settings: P. falciparum 3D7 growth, 3 d, higher = more signal
Give measured z-score for each item. Keep answers brief.
Please respond with just the number, no unit label.

Q: Param item = C[C@@H]1CC[C@H]2C(=O)N3[C@@H](CC[C@@H](C)[C@@H]3c3cccc(N4CCOCC4)c3)C(=O)N2[C@H]1c1cccc(N2CCOCC2)c1 ; retrieve measured z-score.
Ans: -0.529

Q: Fill in: z-score of C[C@@H]1NC(=O)CC=C[C@@H](C)[C@@H]2C=C[C@H](O)[C@@H](COC(=O)[C@H](C)NC(=O)CC=C[C@@H](C)[C@@H]3C=C[C@H](O)[C@@H](COC1=O)O3)O2 is ___
Ans: -1.47

Q: Given the compound CCCC=C(CCC)[C@@H](NS(=O)(=O)c1cccc(C(F)(F)F)c1)c1ccc(C(=O)OC)cc1 , what is its reported z-score?
Ans: 0.551

---

Assay: FRG1 promoter luciferase signal modulators, primary screen, FRG1 inhibition for FSHD, cell-based, C2C12 myotubes, firefly/Renilla luciferase, luminescence (AID 1084)
Details: higher = more signal, called active from +8 up or from −8 down
Could you please report measured z-score for the items listed next?
Give only the figure.

Q: Bench note: what z-score did C=C(COC)/C(=C/C[C@@H](OC(=O)c1ccncc1)c1ccc(OCCO)cc1)c1cc(C(=O)OC)ccc1OC show?
Ans: -2.14

Q: I would be grateful if you could share the reported z-score for COc1ccc(-c2cc3c(c(-c4ccccc4)n2)[Si](C(C)C)(C(C)C)O[C@H]3c2ccccc2)cn1 .
Ans: -0.68

Q: Consider the compound shown here: COc1ccc([Si](C)(C)[C@H]2[C@H](CC(=O)N(CCO)Cc3ccccc3)O[C@@]3(C(=O)N(C)c4ccccc43)[C@@H]2C)cc1 What is its recorded z-score?
Ans: -1.39

Q: Query (compound): COc1ccc(NN2C(C(O)c3cc(OC)c(OC)c(OC)c3)C=CC3C(=O)N(C4CCCCC4)C(=O)C32)cc1 (stereo unspecified) ; field requested: z-score
Ans: 1.02

Q: I would be grateful if you could share the reported z-score for CO[C@H]1COC(=O)[C@H](C)NC(=O)CC=C[C@@H](C)[C@H](NS(=O)(=O)c2ccc(C)cc2)COC(=O)[C@@H](OCc2ccccc2)C=C[C@@H]1C .
Ans: -0.0584

Q: // query z-score value for entry C=CCNC(=O)[C@H]1[C@@H]2C(=O)O[C@@H](c3ccccc3)[C@@H](c3ccccc3)N2[C@@H](c2ccccc2OCCO)[C@]12C(=O)N(C(=O)OCCOC)c1ccc(C#CCC(C(=O)OC)C(=O)OC)cc12
Ans: -0.678

Q: Quick one: z-score of Cc1ccc(S[C@]2(C(=O)NC3CC3)CC(=O)N(Cc3cc(C(F)(F)F)cc(C(F)(F)F)c3)[C@@H]2c2ccc(CO)cc2)cc1 ?
Ans: -0.799

Q: Bench note: what z-score did CC(C)N1CC=CC23O[C@@H]4/C=C\CCCOC(=O)C4[C@H]2C(=O)N(CCO)[C@@H]3C1=O (stereo partly specified) show?
Ans: -0.469

Q: Would you kindly share the measured z-score for C[C@@H]1NC(=O)CC=C[C@@H](C)[C@@H]2C=C[C@H](O)[C@@H](COC(=O)[C@H](C)NC(=O)CC=C[C@@H](C)[C@@H]3C=C[C@H](O)[C@@H](COC1=O)O3)O2 ?
Ans: 0.587

Q: Please give the measured z-score for this compound: COc1cc(CO)cc(I)c1O[C@H]1C=C(C(=O)NCCO)C[C@@H](N(CC2CCCCC2)C(=O)c2cc3ccccc3oc2=O)[C@@H]1O
Ans: -1.48

Q: Param item = CO[C@H]1O[C@H](CO)[C@@H](OC(=O)CCc2ccccc2)[C@@H]2OC(=O)[C@H](Cc3cccc(Br)c3)C/C=C/C[C@@H](Cc3cccc(Br)c3)C(=O)O[C@@H]12 ; retrieve measured z-score.
Ans: -2.01

---

Assay: COS7 lysate on small-molecule microarray, probe aHis, 635 nm (AID 1123);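 further: z-score combines 667nm fluorescence intensity with signal-to-noise per printed compound spot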
Details: COS7 cell lysate, fluorescence, higher = more signal
Record form. Attribute: composite z-score. Fill in for each entry.
Lab note: record the figure alone, no unit after it.

Q: Name the reported composite z-score value associated with the compound Cc1ccc(S[C@]2(C(=O)NC3CC3)CC(=O)N(Cc3cc(C(F)(F)F)cc(C(F)(F)F)c3)[C@@H]2c2ccc(CO)cc2)cc1
Ans: 0.42

Q: Would you mind telling me what composite z-score value was observed for C=C(/C(=C/C[C@@H](OC(=O)c1ccncc1)c1ccc(CO)o1)c1cnc2ccccc2c1)C(C)C ?
Ans: 0.606

Q: Need composite z-score, item O=C1O[C@H](c2ccccc2)[C@H](c2ccccc2)N2[C@H]1[C@@H](C(=O)Nc1nc3ccccc3s1)[C@]1(C(=O)Nc3ccc(C#CC4=CCCCC4)cc31)[C@H]2c1ccccc1OCCO
Ans: 0.834

Q: What does the data say about its composite z-score? Entry: C=C(COC)/C(=C/C[C@@H](OC(=O)c1ccncc1)c1ccc(OCCO)cc1)c1cc(C(=O)OC)ccc1OC
Ans: 1.61

Q: Name the reported composite z-score value associated with the compound CCCC[C@@H]1C[C@H]1[C@@H](NC(=O)c1ccccc1)c1ccccc1C(F)(F)F
Ans: 3.03

Q: Entry O=C1C2C=CC(C(O)C(c3ccccc3)c3ccccc3)N(Nc3ccc([N+](=O)[O-])cc3)C2C(=O)N1c1ccccc1 (stereo unspecified) has what composite z-score?
Ans: 3.13

Q: Could you share which composite z-score value was measured for CCOC(=O)C[C@H]1[C@H](OC(=O)c2cc3ccccc3oc2=O)[C@@H](NC(=O)C2CCCCC2)c2cc(OCCCO)ccc2N1C(=O)c1ccc2ccccc2n1 ?
Ans: 0.801

Q: Endpoint output: composite z-score of C=CC(=O)O[C@@H](Cc1ccccc1)[C@H]1C2C=CCCC=C2CN1Cc1cccc(Cl)c1 (stereo partly specified) . Value?
Ans: -0.323

Q: Which value of composite z-score has been reported for COc1cc2c(cc1OC)CN(C(=O)[C@H]1[C@@H]3C(=O)O[C@@H](c4ccccc4)[C@@H](c4ccccc4)N3[C@@H](c3ccc(O)cc3)[C@]13C(=O)Nc1ccc(C#CC4(O)CCCCCC4)cc13)CC2 in the records?
Ans: 3.61

Q: Recorded composite z-score for C=CCC(OC(C)=O)[C@@H]1[C@@H](N(Cc2ccc(-c3cccc(C(F)(F)F)c3)o2)C(=O)Cc2ccc(F)cc2)c2cc(OCCCO)ccc2N1C(=O)c1ccc(-c2ccccc2)cc1 (stereo partly specified) , please?
Ans: -0.197

Q: Name the recorded composite z-score for COC(=O)C1=C(C)N(Cc2ccccc2)c2c(C(=O)OC)c(C(=O)OC)c(C(=O)OC)c(=O)n2[C@@H]1c1ccccc1 .
Ans: 0.247

Q: Tell me the measured composite z-score of C[N+](C)(C)CCCCNC(=O)[C@H]1C[C@H]2C(=O)NCC(=O)N2[C@H]1c1cccc(OCCO)c1 , please.
Ans: 0.961

Q: Quick check: composite z-score of C=CC[C@]1(C(=O)N2CCCCC2)N=C(c2ccc(OCCCO)cc2)O[C@H]1c1ccccc1N=[N+]=[N-] ?
Ans: 2.81

Q: Can you share its composite z-score? I mean this compound: CC(C)[Si](OCCCNS(=O)(=O)c1ccc(Br)cc1)(C(C)C)C(C)C
Ans: 0.468

Q: Tell me the measured composite z-score of NC(=O)NCC#Cc1ccc2c(c1)[C@]1(C(=O)N2)[C@H](C(=O)N2CCCCCCC2)[C@H]2C(=O)O[C@H](c3ccccc3)[C@H](c3ccccc3)N2[C@@H]1c1ccccc1OCCO , please.
Ans: 4.03

Q: // composite z-score lookup, key: [N-]=[N+]=NCc1ccccc1C[C@@]1(C(=O)O)N=C(c2ccc(OCCCO)cc2)O[C@@H]1c1ccccc1N=[N+]=[N-]
Ans: 2.05

Data provenance is PubChem BioAssay.
